subject of test: Recombinant human AKR1C3 (17β-HSD5) protein (Homo sapiens, UniProt P42330)
Construct: made in house; host or cells: E. coli
Sequence (P42330 whole entry): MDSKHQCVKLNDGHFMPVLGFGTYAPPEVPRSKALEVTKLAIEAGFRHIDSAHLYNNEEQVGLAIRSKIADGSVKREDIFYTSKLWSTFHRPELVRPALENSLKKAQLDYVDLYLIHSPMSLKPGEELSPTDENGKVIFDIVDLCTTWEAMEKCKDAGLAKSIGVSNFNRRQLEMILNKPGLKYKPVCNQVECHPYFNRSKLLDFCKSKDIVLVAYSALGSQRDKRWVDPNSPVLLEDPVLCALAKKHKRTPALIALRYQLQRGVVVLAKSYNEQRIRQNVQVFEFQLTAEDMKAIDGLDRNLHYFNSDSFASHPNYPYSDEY
protocol details: Inhibition of AKR1C3 (17β-hydroxysteroid dehydrogenase type 5) enzyme, fluorescence assay
Assay type: biochemical
condition label: inhibitor at 500 nM
Measured inhibition at 0.5 µM accompanies every entry in the list below.
Note: unit % is implicit; provide only the numeric part.

Please review the entries below; each comes with its answer.
compound	readout units	test value
Cn1ncc2cccc(C(C#N)=C3CCN(C(=O)N4CCC(CO)CC4)CC3)c21 [Compound 118]	%	96
N#CC(=C1CCN(C(=O)N2CCC(S(N)(=O)=O)CC2)CC1)c1cccc(Cl)c1 [Compound 99]	%	96
N#CC(=C1CCN(C(=O)N2CCn3cncc3C2)CC1)c1ccc(Cl)cc1 [Compound 46]	%	102
N#CC(=C1CCN(C(=O)N2CCc3sccc3C2)CC1)c1ccc(OC(F)(F)F)cc1 [Compound 117]	%	94

Q) Requested read-out: inhibition at 0.5 µM. Entry: N#CC(=C1CCN(C(=O)N2CCC(CCCO)CC2)CC1)c1ccc(F)cc1 [Compound 142]
A) 91

Q) I would be grateful if you could share the reported inhibition at 0.5 µM for N#CC(=C1CCN(C(=O)N2CCn3cncc3C2)CC1)c1cccc2[nH]ncc12 [Compound 61] .
A) 99

Q) Which value of inhibition at 0.5 µM has been reported for N#CC(=C1CCN(C(=O)N2CCSCC2)CC1)c1ccc(F)cc1 [Compound 100] in the records?
A) 92

Q) State the recorded inhibition at 0.5 µM for this entry: N#CC(=C1CCN(C(=O)N2CCn3cncc3C2)CC1)c1cc(F)cc(F)c1 [Compound 52]
A) 97
